# credit: patent US5185366A

assay: Inhibition of cell growth (microscopic cell count); assay type: cell-based, Buffalo green monkey; conditions: monkey, bgm-70 cells; 48 h, 0.4 μmol/L; read-out: % Reduction of cell growth
quantity-name: inhibition at 48 h, 0.4 µM (%)
Give the value, in units of %, as a plain number.

The following compounds have reported results that may help.
Query string: Name the recorded inhibition at 48 h, 0.4 µM for O=c1oc2ccc(Cl)cc2c(O)c1O [Compound 6] .
Result string: 12

Query string: Name the recorded inhibition at 48 h, 0.4 µM for CC1(c2ccc(Cl)cc2)OC(=O)C(O)=C1O (racemic) [Compound 1] .
Result string: 16

Read the next record carefully.
Query string: Name the recorded inhibition at 48 h, 0.4 µM for O=C1OC2(CCCCC2)C(O)=C1O [Compound 4, 4-spiro-2-hydroxytetronic acid] .
Result string: 8.4
